System: NCI-H460 lung
assay_remarks: NCI-60 one-dose screen, 48 h
conditions: 10 µM unless noted
The panel holds about 83,000 compounds, 20% with a hit somewhere; the sample as a whole holds those more often. Active and inactive are the calls of the source. How the source made its calls: active means growth percent below 10; inactive means the rest.
Please reply with one of these outcomes: active, inactive

Field: example entries. Status: answers known.
INSERT INTO assay_data (compound, label_class) VALUES
  ('O=C(O)C(c1ccccc1)N1C(=O)CSC1=S (centres undefined)', 'inactive'),
  ('CC(=O)OC[C@H]1OC(Sc2sc(C(=O)c3ccc(Br)cc3)c(N)c2-c2nc3ccccc3s2)[C@H](OC(C)=O)[C@@H](OC(C)=O)[C@H]1OC(C)=O (some centres undefined)', 'inactive'),
  ('COc1ccc(-c2nc(NN)c3c(C)nn(-c4ccc(F)cc4)c3n2)cc1', 'inactive'),
  ('Cc1cc2[nH]c(=O)c3c4ncccc4cn3c2cc1C', 'active'),
  ('O=C(Nc1c2ccccc2nc2ccccc12)c1ccccc1CN1C(=O)c2ccccc2C1=O', 'active');

Kindly consider the entry below.
Task item: Please state the recorded outcome for this compound: NCCCNc1nc2ccccc2c2c(=O)c3cc(C(F)(F)F)ccc3sc12
Reply: active

----------
Tested on: SK-MEL-28 melanoma
assay_remarks: NCI-60 one-dose screen, 48 h (100 = growth as untreated, 0 = no growth, -100 = all killed)
conditions: 10 µM unless noted
Compounds without any hit were thinned out: in the full panel of roughly 83,000, 20% have a hit.
test_readout: growth (%)
Could you give me the number in %? Just the number is fine.

Known growth results, listed for orientation:
INSERT INTO measurements (molecule, test_readout, value) VALUES
  ('Cn1cc(-c2cc3ncnc(Nc4ccc(CC(=O)Nc5cc(C(C)(C)C)on5)cc4)c3s2)cn1', 'growth', 44),
  ('CN(C)c1ccc(/C=N\Nc2cc(=O)[nH]c3ccc(Cl)cc23)cc1', 'growth', 114),
  ('O=c1[nH][n+](-c2ccc(Br)cc2)no1', 'growth', 61.2),
  ('COc1ccc(CN2c3ccccc3CCc3ccccc32)cc1F', 'growth', 50.8),
  ('CN(C)CC#Cc1ccc2ncc(C#N)c(Nc3ccc(F)c(Cl)c3)c2c1', 'growth', 69.4);

Task item: Please report the recorded growth for CCOC(=O)C1=C(N)Oc2c(sc3c(C)cccc23)C1c1ccc(OC)cc1 (stereo unspecified) .
Reply: 46.5

----------
Test system: UO-31 renal
assay_remarks: NCI-60 one-dose screen, 48 h (100 = growth as untreated, 0 = no growth, -100 = all killed)
conditions: 10 µM unless noted
Protocol: Growth inhibition of the UO-31 human tumor cell line is measured as a screen for anti-cancer activity. Cells are grown in 96 well plates and exposed to the test compound for 48 hours. Compounds are tested at a single concentration, which is 10^-5 M for most compounds. The reported endpoint is percent growth (GI% or GIPRCNT), where numbers from 0 - 100% represent growth inhibition, and numbers from -100% - 0 represent cell death. For example, a value of 40 represents 60% growth inhibition. […]
About 83,000 compounds went through this panel and 20% of them were active in at least one assay; those are over-represented in the sample as a whole.
test_readout: growth (%)
Numeric only. Scale: %

INSERT INTO measurements (compound, test_readout, value) VALUES
  ('c1ccc(-c2nc3nonc3nc2-c2ccccc2)cc1', 'growth', 36.3);

Task item: I am curious: what growth value has been reported for CCCCCCCNC(=O)CCCNc1ncnc2c1ncn2-c1cccc(C(C)O)c1 (stereo not given) ?
Reply: 83.6

Task item: Record request: growth value, item COc1ccc(C(Cc2ccccc2)NCCN2CCOCC2)cc1 (stereo not given)
Reply: 84.5

Task item: // lookup growth for Cc1nc(S(=O)(=O)c2ccccc2)c(S(=O)(=O)Cc2ccc([N+](=O)[O-])cc2)o1
Reply: 72.5

Task item: // returns reported growth for input Oc1ccc(C#CCOc2ccccc2)cc1CNCCN(Cc1ccccn1)Cc1ccccn1
Reply: -2.48

Task item: Give its growth value. Item: COc1cc(C(=O)c2cnc(-c3cccc4[nH]ccc34)[nH]2)cc(OC)c1OC
Reply: 26.7

Task item: Value lookup for growth; key = Cc1cccc(NCc2cn(-c3ccc(C(=O)O)cc3)nc2-c2ccc(C(=O)O)cc2)n1
Reply: 88

Task item: State the recorded growth for this entry: CCc1cccc2c1S/C(=C/c1ccc(Cl)cc1)C2=O
Reply: 70.7
